target: HIV Env, isolate Du422.1 (HIV); assay: cell-based or functional assay
readout_type: IC80 (µg/ml) with constrains (µg/mL)
Respond with the bare value in µg/mL.

[
  {
    "binder": "ePGDM9 (antibody, V domains shown) VH: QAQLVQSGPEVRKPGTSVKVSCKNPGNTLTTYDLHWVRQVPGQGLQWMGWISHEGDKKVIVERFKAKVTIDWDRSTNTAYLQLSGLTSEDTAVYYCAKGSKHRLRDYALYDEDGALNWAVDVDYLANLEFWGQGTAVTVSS VL: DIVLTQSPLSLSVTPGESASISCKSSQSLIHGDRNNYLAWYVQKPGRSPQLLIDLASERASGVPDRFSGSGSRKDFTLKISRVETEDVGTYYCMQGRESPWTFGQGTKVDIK",
    "IC80 (µg/ml) with constrains [µg/mL]": 53.2
  }
]

Next binder, please.
Which IC80 (µg/ml) with constrains is listed for ePGDM5 (antibody, V domains shown) VH: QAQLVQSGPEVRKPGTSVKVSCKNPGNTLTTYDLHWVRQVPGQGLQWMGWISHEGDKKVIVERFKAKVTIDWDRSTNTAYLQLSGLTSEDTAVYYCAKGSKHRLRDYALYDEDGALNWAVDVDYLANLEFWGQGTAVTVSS VL: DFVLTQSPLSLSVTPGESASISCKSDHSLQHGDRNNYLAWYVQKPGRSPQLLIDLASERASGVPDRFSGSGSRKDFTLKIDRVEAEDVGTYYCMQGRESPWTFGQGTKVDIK ? 34.6

The reported measurements were obtained from patent US20230134571A1.
